// reported koff per item
Target: Human GlyT1 (human) (UniProt P48067)
Sequence (P48067 whole entry): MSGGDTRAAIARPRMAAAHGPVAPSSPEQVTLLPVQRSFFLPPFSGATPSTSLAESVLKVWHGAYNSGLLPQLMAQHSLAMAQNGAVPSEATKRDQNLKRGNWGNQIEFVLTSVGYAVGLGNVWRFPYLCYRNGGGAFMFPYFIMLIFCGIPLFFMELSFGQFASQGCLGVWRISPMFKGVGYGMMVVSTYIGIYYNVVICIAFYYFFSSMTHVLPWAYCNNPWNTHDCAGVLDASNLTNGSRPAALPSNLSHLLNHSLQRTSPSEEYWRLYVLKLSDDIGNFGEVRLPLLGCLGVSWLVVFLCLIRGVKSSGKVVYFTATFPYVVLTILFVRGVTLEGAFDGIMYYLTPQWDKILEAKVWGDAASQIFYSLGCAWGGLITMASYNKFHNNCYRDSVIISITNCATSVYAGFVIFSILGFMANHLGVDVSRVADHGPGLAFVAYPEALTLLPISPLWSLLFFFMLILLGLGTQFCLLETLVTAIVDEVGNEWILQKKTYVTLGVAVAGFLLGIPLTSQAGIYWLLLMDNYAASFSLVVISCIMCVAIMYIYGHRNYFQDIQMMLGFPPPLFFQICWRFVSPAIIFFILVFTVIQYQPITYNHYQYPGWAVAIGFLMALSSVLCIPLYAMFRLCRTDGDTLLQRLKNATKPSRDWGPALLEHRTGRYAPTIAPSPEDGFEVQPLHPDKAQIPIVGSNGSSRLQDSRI
Test: SPR; Biacore T200, 18°C; biotinylated GlyT1 (about 300 RU) on SA sensor, sybody up to 2 µM as analyte; 20 mM Citrate pH 6.4, 150 mM NaCl, 0.004% LMNG; 50 µl/min; 1:1 model; single cycle for Sb_GlyT1#6; KD from kinetics or from equilibrium as the column says
Answer with a number only, understood to be in s⁻¹.

Sb_GlyT1#7 (VHH) VHH: QVQLVESGGGLVQAGGSLRLSCAASGFPVYAYEMYWYRQAPGKEREWVAAISSSGTWAGYADSVKGRFTISRDNAKNTVYLQMNSLKPEDTAVYYCNVKDWGASWAYYDYWGQGTQVTVS = 0.000185

GET /value?item= Sb_GlyT1#2 (VHH) VHH: QVQLVESGGGLVQAGGSLRLSCAASGFPVYHRSMLWYRQAPGKEREWVAAIKSNGAGTWYADSVKGRFTISRDNAKNTVYLQMNSLKPEDTAVYYCTVGVGTNYWGQGTQVTVS &field=koff returns 0.0928

GET /value?item= Sb_GlyT1#5 (VHH) VHH: QVQLVESGGGLVQAGGSLRLSCAASGFPVMNRWMAWYRQAPGKEREWVAAVASYGETTRYADSVKGRFTISRDNAKNTVYLQMNSLKPEDTAVYYCNVKDWGWWTRAYDYWGQGTQVTVS &field=koff returns 0.0372

GET /value?item= Sb_GlyT1#1 (VHH) VHH: QVQLVESGGGLVQAGGSLRLSCAASGFPVYYSHMLWYRQAPGKEREWVAAIKSLGAKTWYADSVKGRFTISRDNAKNTVYLQMNSLKPEDTAVYYCTVGVGTNYYGQGTQVTVS &field=koff returns 0.0577

GET /value?item= Sb_GlyT1#6 (VHH) VHH: QVQLVESGGGLVQAGGSLRLSCAASGFPVVYYEMYWYRQAPGKEREWVAAITSSGWYTHYADSVKGRFTISRDNAKNTVYLQMNSLKPEDTAVYYCNVKDWGASWKQYDYWGQGTQVTVS &field=koff returns 4.99e-05
